tested on: Rattus norvegicus; assay: In vivo antinociceptive activity was determined using in rat abdominal irritant test (RAIT) assay; type: functional; conditions: Abdomen
value.kind: ED50 (mg/kg)
Reply numerically in mg/kg, unit not repeated.

| compound | value.observed |
| --- | --- |
| CCc1cscc1Cc1c[nH]cn1.O=C(O)/C=C/C(=O)O | 0.32 |

With Rattus norvegicus as the test system, `Cc1ccsc1Cc1c[nH]cn1.Cl` showed ED50 of 0.87

With Rattus norvegicus as the test system, COC(c1c[nH]cn1)c1cscc1Br.O=C(O)/C=C/C(=O)O (configuration not stated) showed ED50 of 3.6

With Rattus norvegicus as the test system, `Cc1cc(Cc2c[nH]cn2)c(C)s1.O=C(O)/C=C/C(=O)O` showed ED50 of 0.9

With Rattus norvegicus as the test system, COC(c1c[nH]cn1)c1cscc1C.O=C(O)/C=C/C(=O)O (configuration not stated) showed ED50 of 4.4

With Rattus norvegicus as the test system, Cc1ccsc1C(C)c1c[nH]cn1.Cl (configuration not stated) showed ED50 of 2.2

With Rattus norvegicus as the test system, `Brc1csc(Cc2c[nH]cn2)c1.Cl` showed ED50 of 5.2

With Rattus norvegicus as the test system, `O=C(O)/C=C/C(=O)O.c1nc(Cc2ccsc2)c[nH]1` showed ED50 of 0.97

With Rattus norvegicus as the test system, `Cc1cscc1Cc1c[nH]cn1.O=C(O)/C=C/C(=O)O` showed ED50 of 0.35

With Rattus norvegicus as the test system, CC(c1c[nH]cn1)c1sccc1Br.Cl (configuration not stated) showed ED50 of 0.97

With Rattus norvegicus as the test system, Cc1cccc([C@H](C)c2c[nH]cn2)c1C [DEXMEDETOMIDINE] showed ED50 of 0.12

With Rattus norvegicus as the test system, CC(c1c[nH]cn1)c1sccc1Br (configuration not stated) showed ED50 of 0.97

----------
Target: UniProt:P22086
Sequence (P22086 whole entry): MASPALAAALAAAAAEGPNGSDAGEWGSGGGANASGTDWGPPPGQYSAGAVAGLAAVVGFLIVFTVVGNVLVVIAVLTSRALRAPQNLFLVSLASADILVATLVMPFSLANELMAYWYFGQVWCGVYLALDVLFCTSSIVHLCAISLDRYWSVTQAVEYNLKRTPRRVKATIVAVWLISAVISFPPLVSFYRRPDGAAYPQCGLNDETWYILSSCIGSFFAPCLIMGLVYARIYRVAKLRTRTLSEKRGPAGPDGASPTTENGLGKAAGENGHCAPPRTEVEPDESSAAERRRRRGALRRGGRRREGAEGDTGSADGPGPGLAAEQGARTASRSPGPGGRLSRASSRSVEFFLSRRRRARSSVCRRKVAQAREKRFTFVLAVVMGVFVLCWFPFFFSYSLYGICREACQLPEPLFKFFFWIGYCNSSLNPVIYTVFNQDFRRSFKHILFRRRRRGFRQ
value.kind: Ki (nM)
Reply numerically in nM, unit not repeated.

# Ki (molecule: `Brc1csc(Cc2c[nH]cn2)c1.Cl` ) is 1.4

----------
tested on: Rattus norvegicus; test: In vivo antinociceptive activity was determined using in rat abdominal irritant test (RAIT) assay; format: functional; details: Abdomen
value.kind: ED50 (mg/kg)
Reply numerically in mg/kg, unit not repeated.

# example entries with known answers
| molecule | value.kind | value.observed |
| --- | --- | --- |
| CCC(c1c[nH]cn1)c1cscc1C.O=C(O)/C=C/C(=O)O (stereo not drawn) | ED50 | 2.6 |
| CC(c1c[nH]cn1)c1cscc1Br.O=C(O)/C=C/C(=O)O (stereo not drawn) | ED50 | 0.31 |

Could you now consider this next molecule?
# ED50 (molecule: Cc1ccsc1C(C)c1c[nH]cn1 (single isomer, unassigned; (+)) ) is 1.18

Data origin, for the record: ChEMBL document CHEMBL1134368
